Where do the numbers come from? From patent US7531482B2.

test system: Colletotricum lagenarium; assay: Cucumber Anthracnose (COLLLA) whole-plant disease control test; type: in vivo; details: Cucumis sativus, foliar; 200 ppm applied to foliage of cucumber; inoculated one day after treatment; read-out: COLLLA disease control
Measured Parameter: pest or weed control at 200 ppm

Example entries begin here.
INSERT INTO results (compound, test_result) VALUES
  ('Clc1cc(Br)cnc1Oc1ccc(CCNc2ncnc3scc(Cl)c23)cc1 [Compound 51]', '0 to 49%'),
  ('FC(F)(F)c1cc(Oc2ccc(CCNc3ncnc4scc(Cl)c34)cc2)cc(C(F)(F)F)n1 [Compound 75]', '80 to 100%'),
  ('Fc1cnc(C(F)(F)F)c(F)c1Oc1ccc(CCNc2ncnc3scc(Cl)c23)cc1 [Compound 61]', '80 to 100%'),
  ('CC(=O)c1cnc(Oc2ccc(CCNc3ncnc4scc(Cl)c34)cc2)s1 [Compound 46]', '0 to 49%'),
  ('Cc1nnsc1Oc1ccc(CCNc2ncnc3scc(Cl)c23)cc1 [Compound 114]', '50 to 79%'),
  ('FC(F)(F)c1ccc(Oc2ccc(CCNc3ncnc4scc(Cl)c34)cc2)nc1 [Compound 1]', '0 to 49%'),
  ('O=C(Oc1ccc(CCNc2ncnc3scc(Cl)c23)cc1)c1ccc(Cl)nc1 [Compound 15]', '0 to 49%'),
  ('N#Cc1c(Cl)cncc1Oc1ccc(CCNc2ncnc3scc(Cl)c23)cc1 [Compound 71]', '80 to 100%'),
  ('CN(C)NC(=O)c1ccc(Oc2ccc(CCNc3ncnc4scc(Cl)c34)cc2)nc1 [Compound 33]', '50 to 79%'),
  ('N#Cc1cccc(Oc2ccc(CCNc3ncnc4scc(Cl)c34)cc2)n1 [Compound 32]', '50 to 79%');

Hi! Can you tell me pest or weed control at 200 ppm for each of these compounds?
1. Clc1csc2ncnc(NCCc3ccc(Oc4ncnc5scnc45)cc3)c12 [Compound 86]
2. Clc1cccc(Oc2ccc(CCNc3ncnc4scc(Cl)c34)cc2)n1 [Compound 37]
3. N#Cc1ccnc(Oc2ccc(CCNc3ncnc4scc(Cl)c34)cc2)c1 [Compound 13]

1: 0 to 49%; 2: 80 to 100%; 3: 50 to 79%

Hi! Can you tell me pest or weed control at 200 ppm for each of these compounds?
1. N#Cc1ccnc(Oc2ccc(CCNc3ncnc4scc(F)c34)cc2)c1 [Compound 55]
2. N#Cc1c(Cl)cncc1Oc1cccc(CCNc2ncnc3scc(Cl)c23)c1 [Compound 130]
3. CO/N=C\c1ccc(Oc2ccc(CCNc3ncnc4scc(Cl)c34)cc2)nc1 [Compound 34]
4. CC(C)(C)OC(=O)c1ccc(Oc2ccc(CCNc3ncnc4scc(Cl)c34)cc2)cc1 [Compound 6]
5. N#Cc1ccc(Oc2ccc(CCNc3ncnc4scc(Cl)c34)cc2)nc1 [Compound 4]

1. 80 to 100%
2. 0 to 49%
3. 80 to 100%
4. 50 to 79%
5. 80 to 100%
